# TEST_SYSTEM: LmPTR1 (Leishmania major)
# Sequence (Q01782 1-288): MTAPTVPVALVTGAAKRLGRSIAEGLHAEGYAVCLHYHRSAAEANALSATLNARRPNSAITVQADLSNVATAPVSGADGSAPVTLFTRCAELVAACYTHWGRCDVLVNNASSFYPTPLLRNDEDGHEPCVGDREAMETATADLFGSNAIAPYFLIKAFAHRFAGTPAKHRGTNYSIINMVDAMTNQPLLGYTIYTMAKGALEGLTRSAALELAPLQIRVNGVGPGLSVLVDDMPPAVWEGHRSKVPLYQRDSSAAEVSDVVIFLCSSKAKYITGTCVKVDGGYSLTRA
OBSERVABLE: Ki (µM)

CCOC(=O)C1CCCCN1C(=O)c1ccc(NCc2cnc3ccc(C(F)(F)F)cc3n2)cc1 (centres unmarked) : 6

1. O=C(O)C1CCN(C(=O)c2ccc(NCc3cnc4cccc(C(F)(F)F)c4n3)cc2)CC1
2. COC(=O)C1CCN(C(=O)c2ccc(NCc3cnc4nc(N)nc(C)c4n3)cc2)CC1
Q: Of 1 and 2 , whose reported Ki is numerically smaller? Provide the label of your selected option as the answer.
A: 2

---

Quick record of Ki values for LmDHFR (Leishmania major).
OBSERVABLE: Ki (µM)

O=C(O)C1CCN(C(=O)c2ccc(NCc3cnc4cccc(C(F)(F)F)c4n3)cc2)CC1 : 40

a. Cc1cc(C(F)(F)F)cc2nc(-c3ccccc3)c(CNc3ccc(C(=O)N4CCC(C(=O)O)CC4)cc3)nc12
b. COC(=O)C1CCN(C(=O)c2ccc(NCc3nc4cc(C(F)(F)F)ccc4nc3-c3ccccc3)cc2)C(C(=O)OC)C1 (stereo not drawn)
Q: Among a and b , whose measured Ki is the smaller figure? Kindly state the label of the option you pick.
A: a

1. CCOC(=O)C1CCCCN1C(=O)c1ccc(NCc2cnc3ccc(C(F)(F)F)cc3n2)cc1 (stereo not drawn)
2. CCOC(=O)c1nc2ccccc2nc1CNc1ccc(C(=O)N2CCC(C(=O)O)CC2C(=O)O)cc1 (stereo not drawn)
Q: Hello, I am sorting some records. Could you say if 1 or 2 has the smaller Ki value? Answer with the label corresponding to your selection.
A: 1
(1: 27 µM, 2: 75 µM)

---

# TEST_SYSTEM: TS
# MEASUREMENT_DESCRIPTION: TS enzyme inhibition, three-value table lines (species column not resolvable)
# PARTICULARS: species column (h or Lm) not resolvable; NI means no inhibition at 190 μM, NI marks ⋄ Δ ▴ undefined; read-out: TS Ki (first value of three-value lines)
OBSERVABLE: Ki (µM)
The reply should contain only the number, in µM.

Q: Given the molecule `COC(=O)C1CCN(C(=O)c2ccc(N(CCO)Cc3cnc4nc(N)nc(N)c4n3)cc2)CC1` , what is its reported Ki?
A: 64.5

---

# TEST_SYSTEM: Lm TS (Leishmania major)
# Construct: made in house
# Sequence (P07382 whole entry): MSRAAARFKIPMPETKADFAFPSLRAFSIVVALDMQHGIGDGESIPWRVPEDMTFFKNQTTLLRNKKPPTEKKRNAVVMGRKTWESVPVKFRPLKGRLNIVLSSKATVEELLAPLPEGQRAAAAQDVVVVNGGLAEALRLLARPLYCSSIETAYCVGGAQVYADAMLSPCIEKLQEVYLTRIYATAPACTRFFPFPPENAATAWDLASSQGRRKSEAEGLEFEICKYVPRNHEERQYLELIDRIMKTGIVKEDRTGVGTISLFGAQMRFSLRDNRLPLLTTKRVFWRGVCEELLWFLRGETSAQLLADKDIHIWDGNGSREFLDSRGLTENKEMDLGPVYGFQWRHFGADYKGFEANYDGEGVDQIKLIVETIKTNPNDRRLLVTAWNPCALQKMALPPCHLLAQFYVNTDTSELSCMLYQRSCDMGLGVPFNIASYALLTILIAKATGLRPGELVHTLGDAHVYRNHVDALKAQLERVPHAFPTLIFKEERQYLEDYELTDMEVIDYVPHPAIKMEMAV
# MEASUREMENT_DESCRIPTION: biochemical
# Type: biochemical
# PARTICULARS: read-out: TS Lm Ki; NI means no inhibition at 190 μM
pKi: −log10 of the molar value.
OBSERVABLE: pKi

Q: Fill in: pKi of `COC(=O)C1CCN(C(=O)c2ccc(N(C)Cc3cnc4nc(N)nc(N)c4n3)cc2)CC1` is ___
A: < 3.72
